- system: human LILRB4 (human, UniProt Q8NHJ6 22-448)
- experimentalProtocol: cell-based or functional assay
experimentalEndpoint: ADCP (%) at 133.3 nM, macrophages and MV-4-11 cells
The figure you give is taken to be in %; do not add the unit.

Use these answered entries as a reference point.
Query: Endpoint output: ADCP (%) at 133.3 nM, macrophages and MV-4-11 cells of ch25-G9-G4-C12 (antibody, V domains shown) VH: EVQLVESGGDLVKPGGSLKLSCAASGFTFSSHGMSWVRQTPDKRLEWVATINSGGYYTYYPDSVKGRFTISRDNAKNTLYLQMSSLKSEDTAMYYCARGQLGNWYFDVWGAGTTVTVSS VL: DIVMTQSPAIMSASPGEKVTITCSASSSVSYMHWFQQKPGTSPKLWIYSTSNLASGVPARFSGSGSGTSYSLTISRMEAEDAATYYCQQRSSYPLTFGAGTKLELK . Value?
Reply: 24.2

Query: Bench note: what ADCP (%) at 133.3 nM, macrophages and MV-4-11 cells did ch42-C8-A12-F3-D11 (antibody, V domains shown) VH: EVHLVESGGDLVKPGGSLKLSCAASGFTFSSHGMSWVRQTPDKRLEWVATISSGGIYTYHPDSVKGRFSISRDNAKKTLYLQMSSLKSEDTGIYYCTRGQVGNWYFDVWGAGTTVTVSS VL: DIVITQSPAIMSASPGEKVTINCSASSSVSYMHWFQQTPGTSPKLWIYSTSNLASGVPARFSGSGSGTFYSLTISRMEAEDAATYYCQQRSSYPLTFGAGTKLELK show?
Reply: 20.4

---
Query: Would you mind telling me what ADCP (%) at 133.3 nM, macrophages and MV-4-11 cells value was observed for ch26-H9-B9-B7 (antibody, V domains shown) VH: EVQRVESGGGLVQPGGSRKLSCAASGFTFSSFGMHWVRQAPEKGLEWVAYISSGSSTIYYADTVKGRFTISRDNPKNTLFLQMTSLRSEDTAMYYCARSDGKGAMDYWGQGTSVTVSS VL: DIVMTQSTSSLSASLGDRVTISCRASQDISNYLNWYQQKPDGTVKLLIYYTSRLHSGVPSRFSGSGSGTDYSLTISNLEQEDIATYFCQQGNTLPWTFGGGTKLEIK ?
Reply: 16.1

Query: If you can, please state the reported ADCP (%) at 133.3 nM, macrophages and MV-4-11 cells value of ch44-F10-B6-D4 (antibody, V domains shown) VH: EVHLVESGGGLVKPGGSLKLSCAASGFTFSSYAMSWVRQTPEKRLEWVATISSGGSYIYYPDSVKGRFTISRDNAKNTLYLQMSSLRSEDTAMYYCARQDWDGGDYYAMDYWGQGTSVTVSS VL: DIVMTQSPSSLAVSAGEKVTMSCKSSQSVLYSSNQKNFLAWYQQKPGQSPKLLIYWASTRESGVPDRFTGSGSGTDFTLTISSVQAEDLAVYYCHQYLSSLTFGAGTKLELK .
Reply: 3.12

Query: Quick one: ADCP (%) at 133.3 nM, macrophages and MV-4-11 cells for ch25-E7-A10-H6 (antibody, V domains shown) VH: EVQLVESGGGLVQPGGSRKLSCAASGFTFSTFGMHWVRQAPEKGLEWVAYISSGSSTIYYADTVKGRFTISRDNPKNTLFLQMTSLRSEDTAMYYCARSTGTGAMDYWGQGTSVTVSS VL: DIQMTQTTSSLSASLGDRVTISCRASQDISKYLNWYQQKPDGTVKLLIYYTSRLHSGVPSRFSGSGSGTDYSLTISNLEQEDIATYFCQQGNTLPWTFGGGTKLEIK ?
Reply: 11
